The measured values listed here are drawn from ChEMBL document CHEMBL2029221.

experiment notes: Inhibition of Haemophilus influenzae PDF assessed as formate release from fMAS peptide substrate after 20 mins by formate dehydrogenase coupled assay
The following ranges of IC50 define the classes used here: bin A = under 3 nM, bin B = from 3 nM up to 5 nM, bin C = 5 nM and over

mol smiles	category label
O=CN(O)C[C@@H](CC1CCCC1)C(=O)N1CCC[C@H]1C(=O)NC(=O)OC1CCC1	bin C
O=CN(O)C[C@@H](CC1CCCC1)C(=O)N1CCC[C@H]1C(=O)NC(=O)NC1CCC1	bin A
O=CN(O)C[C@@H](CC1CCCC1)C(=O)N1CCC[C@H]1C(=O)NC(=O)C1CC1	bin C
CC(C)(C)OC(=O)NC(=O)[C@@H]1CCCN1C(=O)[C@H](CC1CCCC1)CN(O)C=O	bin B
O=CN(O)C[C@@H](CC1CCCC1)C(=O)N1CCC[C@H]1C(=O)NC(=O)c1ccccc1	bin B
O=CN(O)C[C@@H](CC1CCCC1)C(=O)N1CCC[C@H]1C(=O)NC(=O)NCCCc1ccccc1	bin B
O=CN(O)C[C@@H](CC1CCCC1)C(=O)N1CCC[C@H]1C(=O)NC(=O)OC1CCCCC1	bin A

---

experiment notes: Inhibition of Haemophilus influenzae PDF assessed as formate release from fMAS peptide substrate after 20 mins by formate dehydrogenase coupled assay
Our labelling divides records by IC50 into ranges: category 1: < 6 nM; category 2: ≥ 6 nM and < 9 nM; category 3: ≥ 9 nM

mol smiles	category label
CC(=O)NC(=O)[C@@H]1CCCN1C(=O)[C@H](CC1CCCC1)CN(O)C=O	category 3
C=CCNC(=O)NC(=O)[C@@H]1CCCN1C(=O)[C@H](CC1CCCC1)CN(O)C=O	category 3
O=CN(O)C[C@@H](CC1CCCC1)C(=O)N1CCC[C@H]1C(=O)NC(=O)NCCCO	category 2
CC(C)(C)C(=O)NC(=O)[C@@H]1CCCN1C(=O)[C@H](CC1CCCC1)CN(O)C=O	category 3
NC(=O)CCNC(=O)NC(=O)[C@@H]1CCCN1C(=O)[C@H](CC1CCCC1)CN(O)C=O	category 2
O=CN(O)C[C@@H](CC1CCCC1)C(=O)N1CCC[C@H]1C(=O)NC(=O)OC1CCCC1	category 1
O=CN(O)C[C@@H](CC1CCCC1)C(=O)N1CCC[C@H]1C(=O)NC(=O)NCCc1ccccc1	category 1
COC(=O)NC(=O)[C@@H]1CCCN1C(=O)[C@H](CC1CCCC1)CN(O)C=O	category 3
NCCNC(=O)NC(=O)[C@@H]1CCCN1C(=O)[C@H](CC1CCCC1)CN(O)C=O	category 2
O=CN(O)C[C@@H](CC1CCCC1)C(=O)N1CCC[C@H]1C(=O)NC(=O)NCCc1ccncc1	category 1
O=CN(O)C[C@@H](CC1CCCC1)C(=O)N1CCC[C@H]1C(=O)NC(=O)NC1CCCC1	category 1
CC(C)C(=O)NC(=O)[C@@H]1CCCN1C(=O)[C@H](CC1CCCC1)CN(O)C=O	category 3
CC(C)CC(=O)NC(=O)[C@@H]1CCCN1C(=O)[C@H](CC1CCCC1)CN(O)C=O	category 2
COCC(=O)NC(=O)[C@@H]1CCCN1C(=O)[C@H](CC1CCCC1)CN(O)C=O	category 3
O=CN(O)C[C@@H](CC1CCCC1)C(=O)N1CCC[C@H]1C(=O)NC(=O)OC1CCOCC1	category 1
NC(=O)NC(=O)[C@@H]1CCCN1C(=O)[C@H](CC1CCCC1)CN(O)C=O	category 1

---

system tested: Peptide deformylase (Streptococcus pneumoniae serotype 4 (strain ATCC BAA-334 / TIGR4), UniProt Q9F2F0)
experiment notes: Inhibition of Streptococcus pneumoniae PDF assessed as formate release from fMAS peptide substrate after 20 mins by formate dehydrogenase coupled assay
experimental endpoint: IC50 (pM)

mol smiles	quantitative readout
O=CN(O)C[C@@H](CC1CCCC1)C(=O)N1CCC[C@H]1C(=O)NC(=O)NC1CCCCC1	200
CC(C)CC(=O)NC(=O)[C@@H]1CCCN1C(=O)[C@H](CC1CCCC1)CN(O)C=O	800
COC(=O)NC(=O)[C@@H]1CCCN1C(=O)[C@H](CC1CCCC1)CN(O)C=O	1900
CC(C)(C)NC(=O)NC(=O)[C@@H]1CCCN1C(=O)[C@H](CC1CCCC1)CN(O)C=O	220
O=CN(O)C[C@@H](CC1CCCC1)C(=O)N1CCC[C@H]1C(=O)NC(=O)NCCO	1100
O=CN(O)C[C@@H](CC1CCCC1)C(=O)N1CCC[C@H]1C(=O)NC(=O)OC1CCOCC1	660
O=CN(O)C[C@@H](CC1CCCC1)C(=O)N1CCC[C@H]1C(=O)NC(=O)OC1CCNCC1	1400
O=CN(O)C[C@@H](CC1CCCC1)C(=O)N1CCC[C@H]1C(=O)NC(=O)NCCc1cnccn1	410
CC(C)OC(=O)NC(=O)[C@@H]1CCCN1C(=O)[C@H](CC1CCCC1)CN(O)C=O	480

---

experiment notes: Plasma clearance in monkey at 3 mg/kg, iv
Assay type: ADME, organism-based, Macaca mulatta
Set-up: dose 3 mg/kg, route intravenous
protocol conditions: rhesus monkey
experimental endpoint: clearance (mL/min/kg)

mol smiles	experimental endpoint	quantitative readout
CCNC(=O)NC(=O)[C@@H]1CCCN1C(=O)[C@H](CC1CCCC1)CN(O)C=O	clearance	29.4

---

Collected IC50 values appear next to each entry.
system tested: Peptide deformylase (Streptococcus pneumoniae serotype 4 (strain ATCC BAA-334 / TIGR4), UniProt Q9F2F0)
Sequence (Q9F2F0 whole entry): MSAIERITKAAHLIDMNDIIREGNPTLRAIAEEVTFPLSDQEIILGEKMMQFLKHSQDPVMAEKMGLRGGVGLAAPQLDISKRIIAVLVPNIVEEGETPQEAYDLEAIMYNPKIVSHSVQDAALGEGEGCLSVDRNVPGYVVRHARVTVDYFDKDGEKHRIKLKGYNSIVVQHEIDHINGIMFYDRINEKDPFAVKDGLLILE
experiment notes: Inhibition of Streptococcus pneumoniae PDF assessed as formate release from fMAS peptide substrate after 20 mins by formate dehydrogenase coupled assay

mol smiles	endpoint unit	IC50
O=CN(O)C[C@@H](CC1CCCC1)C(=O)N1CCC[C@H]1C(=O)NC(=O)C1CC1	nM	1.2
O=CN(O)C[C@@H](CC1CCCC1)C(=O)N1CCC[C@H]1C(=O)NC(=O)C1CCCCC1	nM	0.5
CC(=O)NC(=O)[C@@H]1CCCN1C(=O)[C@H](CC1CCCC1)CN(O)C=O	nM	4
O=CN(O)C[C@@H](CC1CCCC1)C(=O)N1CCC[C@H]1C(=O)NC(=O)C1CCCC1	nM	0.43
CC(C)(C)OC(=O)NC(=O)[C@@H]1CCCN1C(=O)[C@H](CC1CCCC1)CN(O)C=O	nM	0.52
CC(C)NC(=O)NC(=O)[C@@H]1CCCN1C(=O)[C@H](CC1CCCC1)CN(O)C=O	nM	0.31
CCNC(=O)NC(=O)[C@@H]1CCCN1C(=O)[C@H](CC1CCCC1)CN(O)C=O	nM	0.44
NC(=O)NC(=O)[C@@H]1CCCN1C(=O)[C@H](CC1CCCC1)CN(O)C=O	nM	0.91
CCOC(=O)NC(=O)[C@@H]1CCCN1C(=O)[C@H](CC1CCCC1)CN(O)C=O	nM	0.54
NCCNC(=O)NC(=O)[C@@H]1CCCN1C(=O)[C@H](CC1CCCC1)CN(O)C=O	nM	0.38
O=CN(O)C[C@@H](CC1CCCC1)C(=O)N1CCC[C@H]1C(=O)NC(=O)NCCc1cccnc1	nM	0.37
C=CCNC(=O)NC(=O)[C@@H]1CCCN1C(=O)[C@H](CC1CCCC1)CN(O)C=O	nM	2.1
O=CN(O)C[C@@H](CC1CCCC1)C(=O)N1CCC[C@H]1C(=O)NC(=O)NC1CCCC1	nM	0.1
O=CN(O)C[C@@H](CC1CCCC1)C(=O)N1CCC[C@H]1C(=O)NC(=O)NCCc1ccncc1	nM	0.35
O=CN(O)C[C@@H](CC1CCCC1)C(=O)N1CCC[C@H]1C(=O)NC(=O)NCCCO	nM	0.77
O=CN(O)C[C@@H](CC1CCCC1)C(=O)N1CCC[C@H]1C(=O)NC(=O)OC1CCCC1	nM	0.26

---

Listing of recorded pIC50 by entry.
system tested: Peptide deformylase (Streptococcus pneumoniae serotype 4 (strain ATCC BAA-334 / TIGR4), UniProt Q9F2F0)
experiment notes: Inhibition of Streptococcus pneumoniae PDF assessed as formate release from fMAS peptide substrate after 20 mins by formate dehydrogenase coupled assay
pIC50: −log10 of the molar value.
experimental endpoint: pIC50

mol smiles	quantitative readout
COCC(=O)NC(=O)[C@@H]1CCCN1C(=O)[C@H](CC1CCCC1)CN(O)C=O	9.00
O=CN(O)C[C@@H](CC1CCCC1)C(=O)N1CCC[C@H]1C(=O)NC(=O)OC1CCCCC1	9.52
O=CN(O)C[C@@H](CC1CCCC1)C(=O)N1CCC[C@H]1C(=O)NC(=O)NCCc1ccccn1	9.46
CC(C)(C)C(=O)NC(=O)[C@@H]1CCCN1C(=O)[C@H](CC1CCCC1)CN(O)C=O	8.89
O=CN(O)C[C@@H](CC1CCCC1)C(=O)N1CCC[C@H]1C(=O)NC(=O)NC1CCC1	9.52
O=CN(O)C[C@@H](CC1CCCC1)C(=O)N1CCC[C@H]1C(=O)NC(=O)C1CCC1	9.15
O=CN(O)C[C@@H](CC1CCCC1)C(=O)N1CCC[C@H]1C(=O)NC(=O)NCc1ccccc1	9.72
CC(C)C(=O)NC(=O)[C@@H]1CCCN1C(=O)[C@H](CC1CCCC1)CN(O)C=O	8.82
NC(=O)CCNC(=O)NC(=O)[C@@H]1CCCN1C(=O)[C@H](CC1CCCC1)CN(O)C=O	9.14
